The entries below are paired with their reported self-splicing fitness (ln).
# protocol: self-splicing fitness, log relative to wild type (ln ratio); higher = more splicing; Tetrahymena group I intron in knt gene, E. coli kanamycin selection, DiMSum; sequences stand for … in CUCUCU…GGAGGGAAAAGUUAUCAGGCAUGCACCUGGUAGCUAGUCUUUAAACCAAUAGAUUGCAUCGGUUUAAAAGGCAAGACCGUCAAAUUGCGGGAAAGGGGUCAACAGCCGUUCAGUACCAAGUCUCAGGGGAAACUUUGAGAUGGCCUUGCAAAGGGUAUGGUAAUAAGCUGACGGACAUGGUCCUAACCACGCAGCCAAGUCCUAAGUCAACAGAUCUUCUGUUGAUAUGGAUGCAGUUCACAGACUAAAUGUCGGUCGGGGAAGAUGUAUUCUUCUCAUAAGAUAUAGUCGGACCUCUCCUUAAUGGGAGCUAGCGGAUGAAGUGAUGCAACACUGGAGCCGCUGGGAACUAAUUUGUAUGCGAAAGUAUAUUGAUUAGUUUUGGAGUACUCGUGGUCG;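 further: selection with 25 µg/mL kanamycin versus none on LB agar overnight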
# reported-conditions: 37 °C

# count of solved cases: 5
INSERT INTO measurements (residues, result) VALUES
  ('UUCUAGCAAUAUUACGCCCA', -1.37),
  ('UGAAAGCAAUAUUACGAAGG', -1.48),
  ('UCCAAGCAAUAUUACGACGC', -1.25),
  ('UAAUAGCAAUAUUACGCAGU', -2.1),
  ('GGGUAGCAAUAUUACGCGAU', -1.93);

Sure, the documented self-splicing fitness (ln) for AAGUAGCAAUAUUACGCAUU is -0.921

###

# key: entry, value: self-splicing fitness (ln)
# protocol: self-splicing fitness, log relative to wild type (ln ratio); higher = more splicing; Tetrahymena group I intron in knt gene, E. coli kanamycin selection, DiMSum; sequences stand for … in CUCUCU…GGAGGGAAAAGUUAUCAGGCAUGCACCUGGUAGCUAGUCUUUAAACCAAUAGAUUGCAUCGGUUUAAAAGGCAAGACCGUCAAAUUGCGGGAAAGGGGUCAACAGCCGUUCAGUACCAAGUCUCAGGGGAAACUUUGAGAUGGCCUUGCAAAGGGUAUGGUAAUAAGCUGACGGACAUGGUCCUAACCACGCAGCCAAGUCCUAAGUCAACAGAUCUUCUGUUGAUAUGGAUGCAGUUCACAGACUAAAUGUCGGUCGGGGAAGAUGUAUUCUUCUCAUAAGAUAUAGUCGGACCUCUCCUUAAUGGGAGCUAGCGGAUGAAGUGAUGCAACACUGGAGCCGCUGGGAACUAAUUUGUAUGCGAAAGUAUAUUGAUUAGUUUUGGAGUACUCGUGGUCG
# reported-conditions: 30 °C
Number, no unit, nothing else.

Would you please look over these solved cases?
INSERT INTO results (residues, numeric_value) VALUES
  ('CUUUAGCAAUAUUACGUAGG', -1.05),
  ('UGCUAGCAAUAUUACGAUAG', -2.49),
  ('UUGUAGCAAUAUUACGAACG', -1.69),
  ('CCCGAGCAAUAUUACGGUGA', -2.19),
  ('GUCCAGCAAUAUUACGCUCG', -0.909),
  ('GGAAAGCAAUAUUACGUUAA', -3.35),
  ('CUCCAGCAAUAUUACGUCCA', -3.35),
  ('UUGAAGCAAUAUUACGAGGA', -2.32),
  ('ACUUAGCAAUAUUACGAUGG', -2.19),
  ('CUGUAGCAAUAUUACGGGUG', -0.818);

Noted for UGCGAGCAAUAUUACGCAUU : its self-splicing fitness (ln) reads -5.15

Entry AUGCAGCAAUAUUACGACCG ; self-splicing fitness (ln) = -1.66

Value of self-splicing fitness (ln) reported for the sequence UUACAGCAAUAUUACGAAAU is -3.69

Looking up GUCUAGCAAUAUUACGUCCA , I see its self-splicing fitness (ln) listed as -1.07

Lookup result for GUCGAGCAAUAUUACGCCAU ; measured self-splicing fitness (ln): -2.99

Reported self-splicing fitness (ln) ( GCCAAGCAAUAUUACGACCA ) = -1.48

###

The entries below are paired with their reported self-splicing fitness (ln).
# protocol: self-splicing fitness, log relative to wild type (ln ratio); higher = more splicing; Tetrahymena group I intron in knt gene, E. coli kanamycin selection, DiMSum; sequences stand for … in CUCUCU…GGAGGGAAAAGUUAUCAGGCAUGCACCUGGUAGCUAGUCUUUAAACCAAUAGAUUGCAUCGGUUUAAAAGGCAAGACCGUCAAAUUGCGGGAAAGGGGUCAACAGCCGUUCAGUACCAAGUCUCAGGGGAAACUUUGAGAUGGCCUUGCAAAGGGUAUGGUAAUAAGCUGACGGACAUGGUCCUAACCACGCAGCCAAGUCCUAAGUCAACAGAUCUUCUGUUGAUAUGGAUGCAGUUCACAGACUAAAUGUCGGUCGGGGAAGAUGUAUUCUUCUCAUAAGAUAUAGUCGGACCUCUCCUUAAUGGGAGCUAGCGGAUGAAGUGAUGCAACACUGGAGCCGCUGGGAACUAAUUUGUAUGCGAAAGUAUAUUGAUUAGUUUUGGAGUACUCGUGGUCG
# reported-conditions: 30 °C

Consider the following illustrative entries.
INSERT INTO measurements (residues, test_readout, result) VALUES
  ('CUGAAGCAAUAUUACGUUCU', 'self-splicing fitness (ln)', -3.39),
  ('CAUCAGCAAUAUUACGUAGA', 'self-splicing fitness (ln)', -1.06);

Value of self-splicing fitness (ln) reported for the sequence AUCUAGCAAUAUUACGUUGC is -3.28

Lab note: measured self-splicing fitness (ln) of ACAUAGCAAUAUUACGCCUU was -1.25

Query AGUUAGCAAUAUUACGUCCG yields self-splicing fitness (ln) of -1.32

Data point: UAUAAGCAAUAUUACGAGCG ; self-splicing fitness (ln) = -0.0858

The sequence identified as CCUGAGCAAUAUUACGGGUA registered its self-splicing fitness (ln) at -2.9

Per the records, this sequence ( GCUCAGCAAUAUUACGUGCU ) has self-splicing fitness (ln) equal to -2.26

For reference, reported self-splicing fitness (ln) for AACCAGCAAUAUUACGACGU stands at -0.111

Summary for this sequence, UUUUAGCAAUAUUACGAGGA : self-splicing fitness (ln) is -1.04

// sample AUUCAGCAAUAUUACGACAG , its self-splicing fitness (ln) was -2.39

###

# protocol: self-splicing fitness, log relative to wild type (ln ratio); higher = more splicing; Tetrahymena group I intron in knt gene, E. coli kanamycin selection, DiMSum; sequences stand for … in CUCUCU…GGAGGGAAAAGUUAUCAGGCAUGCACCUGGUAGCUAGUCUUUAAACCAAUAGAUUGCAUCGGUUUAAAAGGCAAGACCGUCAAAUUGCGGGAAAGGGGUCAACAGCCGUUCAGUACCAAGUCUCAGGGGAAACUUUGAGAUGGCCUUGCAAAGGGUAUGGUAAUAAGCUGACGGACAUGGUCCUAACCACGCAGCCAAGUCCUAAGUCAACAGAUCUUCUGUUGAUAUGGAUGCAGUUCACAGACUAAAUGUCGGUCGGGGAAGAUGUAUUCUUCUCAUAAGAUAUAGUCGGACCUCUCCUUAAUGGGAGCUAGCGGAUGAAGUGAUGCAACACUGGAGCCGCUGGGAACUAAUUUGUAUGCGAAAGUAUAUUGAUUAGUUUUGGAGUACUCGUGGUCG
# reported-conditions: 30 °C
test-readout: self-splicing fitness (ln)

Here is how some sequences turned out for self-splicing fitness (ln).
INSERT INTO results (residues, test_readout, result) VALUES
  ('AUGCAGCAAUAUUACGACUA', 'self-splicing fitness (ln)', -0.708),
  ('GACGAGCAAUAUUACGUAUA', 'self-splicing fitness (ln)', -3.23),
  ('CUCUAGCAAUAUUACGCACA', 'self-splicing fitness (ln)', -3.24),
  ('UCGAAGCAAUAUUACGACUG', 'self-splicing fitness (ln)', -1.11);

// below: self-splicing fitness (ln) requested for another sequence
Documented self-splicing fitness (ln) of GGUGAGCAAUAUUACGGAGA : -1.36

###

# protocol: self-splicing fitness, log relative to wild type (ln ratio); higher = more splicing; Tetrahymena group I intron in knt gene, E. coli kanamycin selection, DiMSum; sequences stand for … in CUCUCU…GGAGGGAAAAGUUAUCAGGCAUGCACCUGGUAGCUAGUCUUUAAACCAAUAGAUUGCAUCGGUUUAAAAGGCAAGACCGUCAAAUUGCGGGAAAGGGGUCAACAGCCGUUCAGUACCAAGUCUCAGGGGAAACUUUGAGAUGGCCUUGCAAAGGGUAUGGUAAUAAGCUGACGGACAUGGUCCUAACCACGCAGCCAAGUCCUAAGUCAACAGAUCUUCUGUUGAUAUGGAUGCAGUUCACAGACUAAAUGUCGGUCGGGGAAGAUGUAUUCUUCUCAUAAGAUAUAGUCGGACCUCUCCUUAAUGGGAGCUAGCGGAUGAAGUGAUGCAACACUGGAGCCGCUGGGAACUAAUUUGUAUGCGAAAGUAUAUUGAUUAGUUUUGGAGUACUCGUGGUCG
# reported-conditions: 37 °C
test-readout: self-splicing fitness (ln)
Output spec: single numeric token, no unit.

// worked examples, self-splicing fitness (ln) included
INSERT INTO results (residues, numeric_value) VALUES
  ('GCGUAGCAAUAUUACGUUCA', -0.728),
  ('GAAGAGCAAUAUUACGCGGU', -2.55);

// self-splicing fitness (ln) lookup, sequence = CACUAGCAAUAUUACGGGUA , result: -0.188

// self-splicing fitness (ln) value for GUAUAGCAAUAUUACGGUGU : -1.38

Lab book: self-splicing fitness (ln) of GAGUAGCAAUAUUACGUCAA noted as -1.8

UUUGAGCAAUAUUACGAAGG yielded self-splicing fitness (ln) of -1.66

Documented self-splicing fitness (ln) of CCGAAGCAAUAUUACGGAGG : -2.44

The recorded self-splicing fitness (ln) for UUCGAGCAAUAUUACGCUUU is -2.56
